Study system: human uPAR (uPAR-Fc) (Homo sapiens, UniProt Q03405)
Construct: comprising amino acids Leu23-Arg303 according to UniProt entry Q03405.1; purchased R&D Systems 10378-UK-100
Sequence (Q03405 23-303): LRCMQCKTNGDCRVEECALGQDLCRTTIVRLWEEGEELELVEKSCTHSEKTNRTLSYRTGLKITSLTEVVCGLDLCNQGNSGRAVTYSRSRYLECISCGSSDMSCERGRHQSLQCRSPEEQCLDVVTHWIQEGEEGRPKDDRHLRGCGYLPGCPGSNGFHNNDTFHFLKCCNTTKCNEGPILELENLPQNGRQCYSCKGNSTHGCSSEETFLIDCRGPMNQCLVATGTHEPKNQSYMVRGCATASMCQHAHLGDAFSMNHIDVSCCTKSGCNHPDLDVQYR
Assay method text: Surface plasmon resonance (SPR) assay, single cycle kinetics
Format: binding
Measurement conditions: pKD category for uPAR SPR activity assay; uPAR-Fc on Protein A-Chip, single cycle kinetics, 25°C; read-out: pKD CAT (converted)
Where a SMILES comes first, the peptide text is derived from it. Bridges are numbered along the chain shown (N, C = ends). [ ]: non-standard residue; d: D form. The star is where a group is joined. DOTA = O=C(O)CN1CCN(CC(=O)O)CCN(CC(=O)*)CCN(CC(=O)O)CC1; cisHyp = O=C(O)[C@@H]1C[C@H](O)CN1; Hyp = O=C(O)[C@@H]1C[C@@H](O)CN1; Nva = CCC[C@H](N)C(=O)O; Pentanoyl = CCCCC(=O)*

Compound: CCCCC(=O)N[C@H]1CSSC[C@@H](C(N)=O)NC(=O)[C@H](CCC)NC(=O)[C@H]([C@@H](C)CC)NC(=O)[C@@H]2C[C@@H](O)CN2C(=O)[C@@H]2C[C@H](O)CN2C(=O)[C@H](Cc2ccccc2)NC(=O)[C@H](Cc2ccc(O)cc2)NC(=O)[C@H](CCCCNC(=O)CN2CCN(CC(=O)O)CCN(CC(=O)O)CCN(CC(=O)O)CC2)NC(=O)[C@H]([C@@H](C)O)NC1=O [UPAR-388] (Pentanoyl-CTK(DOTA)YF[cisHyp][Hyp]I[Nva]C-NH2; disulfide 1-10)
Kd: 1.58 to 10 nM

* * *

Study system: human uPAR (uPAR-Fc) (Homo sapiens, UniProt Q03405)
Construct: comprising amino acids Leu23-Arg303 according to UniProt entry Q03405.1; purchased R&D Systems 10378-UK-100
Assay method text: Surface plasmon resonance (SPR) assay, single cycle kinetics
Type: binding
Measurement conditions: pKD category for uPAR SPR activity assay; uPAR-Fc on Protein A-Chip, 25°C; read-out: pKD CAT (converted)
Where a SMILES comes first, the peptide text is derived from it. Bridges are numbered along the chain shown (N, C = ends). [ ]: non-standard residue; d: D form. The star is where a group is joined. Hyp = O=C(O)[C@@H]1C[C@@H](O)CN1; αMeL = CC(C)C[C@](C)(N)C(=O)O; Pentanoyl = CCCCC(=O)*
Recorded Kd, one value per entry.

Compound: CCCCC(=O)N[C@H]1CSSC[C@@H](C(N)=O)NC(=O)[C@](C)(CC(C)C)NC(=O)[C@H]([C@@H](C)CC)NC(=O)[C@@H]2C[C@@H](O)CN2C(=O)[C@@H]2CCCN2C(=O)[C@H](Cc2ccccc2)NC(=O)[C@H](Cc2ccc(O)cc2)NC(=O)[C@H](CCC(N)=O)NC(=O)[C@H](CCCNC(=N)N)NC1=O [UPAR-156] (Pentanoyl-CRQYFP[Hyp]I[αMeL]C-NH2; disulfide 1-10)
Kd: 1.58 to 10 nM
//
Compound: CCCCC(=O)N[C@H]1CSSC[C@@H](C(N)=O)NC(=O)[C@H](Cc2ccccc2)NC(=O)[C@H]([C@@H](C)CC)NC(=O)[C@@H]2C[C@@H](O)CN2C(=O)[C@@H]2CCCN2C(=O)[C@H](Cc2ccccc2)NC(=O)[C@H](Cc2ccc(O)cc2)NC(=O)[C@H](CCC(N)=O)NC(=O)[C@H](CCCNC(=N)N)NC1=O [UPAR-171] (Pentanoyl-CRQYFP[Hyp]IFC-NH2; disulfide 1-10)
Kd: 1.58 to 10 nM
